Tested on: Trypanosoma brucei rhodesiense
Assay: Antitrypanosomal activity against Trypanosoma rhodesiense CT infected in ICR/HA Swiss mouse assessed as 30-day increase in survival time at 20 mg/kg relative to control
Format: functional, organism-based
Set-up: dose 20 mg/kg
Activity calls are given as the source filed them. No cut-off for these calls is given here.
test_readout: Activity

{"columns": ["smiles_notation", "test_readout", "val"],
 "data": [
  ["N=C(N)c1ccc(OCCCCCOc2ccc(C(=N)N)cc2)cc1", "Activity", "Active"],
  ["Cc1cc(-c2ccc([C+](N)N)cc2)oc1-c1ccc([C+](N)N)cc1", "Activity", "Active"],
  ["Cc1c(-c2ccc([C+]3NCCN3)cc2)oc(-c2ccc([C+]3NCCN3)cc2)c1C.[Cl-].[Cl-]", "Activity", "Active"]
]}
